- System: VEGF
- Measurement Description: Hypoxia-inducible endogenous VEGF expression ELISA in HeLa cells
- Format: cell-based
- Condition: Homo sapiens, HeLa, compounds 191-239, hypoxic conditions, VEGF protein by ELISA, read-out: ELISA Activity EC50
pEC50: −log10 of the molar value.
Measured Quantity: pEC50

Examples from the recorded data:
Compound | pEC50
CC(=O)N1CCN(CCCOc2ccc(C3CCCc4c3[nH]c3ccc(Br)cc43)cc2)CC1 (stereo not shown) | 7.40 to 8.00
COCCN(CCOC)CC(O)COc1ccc(C2CCCc3c2[nH]c2ccc(Cl)cc32)cc1 (stereo not shown) | 7.40 to 8.00

-- ask I'd like to know its pEC50. The compound in question is COc1ccc(C2CCCCc3c2[nH]c2ccc(Cl)cc32)cc1 (stereo not shown)
-- reply 7.40 to 8.00

-- ask Check CC(=O)N1CCN(CC(O)COc2ccc(C3CCCc4c3[nH]c3ccc(Br)cc43)cc2)CC1 (stereo not shown) too.
-- reply > 8.00

====

- Tested on: VEGF
- Measurement Description: Hypoxia-inducible endogenous VEGF expression ELISA in HeLa cells
- Format: cell-based
- Condition: Homo sapiens, HeLa, compounds 191-239, hypoxic conditions, VEGF protein by ELISA, read-out: ELISA Activity EC50
Listed here are compounds together with their documented EC50.

Examples from the recorded data:
Compound | Reported Measurement
OC1CCc2c([nH]c3ccc(Br)cc23)C1c1ccc(F)cc1 (stereo not drawn) | < 10 nM
OC(COc1ccc(C2CCCc3c2[nH]c2ccc(Cl)cc32)cc1)CN1CCSCC1 (stereo not drawn) | 10 to 40 nM
COCCN(CCOC)CC(O)COc1ccc(C2CCCc3c2[nH]c2ccc(Br)cc32)cc1 (stereo not drawn) | < 10 nM
COCCN(C)CCCOc1ccc(C2CCCc3c2[nH]c2ccc(Br)cc32)cc1 (stereo not drawn) | 10 to 40 nM
OC(COc1ccc(C2CCCc3c2[nH]c2ccc(Cl)cc32)cc1)Cn1ccnn1 (stereo not drawn) | 10 to 40 nM

-- ask I'd like to know its EC50. The compound in question is COCCN(C)CC(O)COc1ccc(C2CCCc3c2[nH]c2ccc(Br)cc32)cc1 (stereo not drawn)
-- reply < 10 nM

-- ask Check Oc1ccc(C2CCCc3c2[nH]c2ccc(Br)cc32)cc1 (stereo not drawn) too.
-- reply 10 to 40 nM

-- ask Check OC1CCc2c([nH]c3ccc(Br)cc23)C1c1ccc(Cl)cc1 (stereo not drawn) too.
-- reply < 10 nM

-- ask Check COc1ccc(C2CCCc3c2[nH]c2ccc(Br)cc32)cc1 (stereo not drawn) too.
-- reply < 10 nM

-- ask Check Clc1ccc2[nH]c3c(c2c1)CCCC3c1ccc(OCC2CO2)cc1 (stereo not drawn) too.
-- reply < 10 nM

-- ask Check Brc1ccc2[nH]c3c(c2c1)CCCC3c1ccc(OCCCn2ccnc2)cc1 (stereo not drawn) too.
-- reply < 10 nM

-- ask Check OC(COc1ccc(C2CCCCc3c2[nH]c2ccc(Cl)cc32)cc1)CN1CCOCC1 (stereo not drawn) too.
-- reply 10 to 40 nM

-- ask Check Oc1ccc(C2CCCCc3c2[nH]c2ccc(Cl)cc32)cc1 (stereo not drawn) too.
-- reply < 10 nM

-- ask Check OCC(O)COc1ccc(C2CCCc3c2[nH]c2ccc(Cl)cc32)cc1 (stereo not drawn) too.
-- reply 10 to 40 nM

-- ask Check OC(COc1ccc(C2CCCc3c2[nH]c2ccc(Br)cc32)cc1)Cn1ccnn1 (stereo not drawn) too.
-- reply < 10 nM

-- ask Check OC(COc1ccc(C2CCCCc3c2[nH]c2ccc(Br)cc32)cc1)Cn1cncn1 (stereo not drawn) too.
-- reply 40 to 200 nM

-- ask Check COCCN(CCCOc1ccc(C2CCCc3c2[nH]c2ccc(Br)cc32)cc1)CCOC (stereo not drawn) too.
-- reply 10 to 40 nM

-- ask Check Brc1ccc2[nH]c3c(c2c1)CCCC3c1ccc(OCC2CO2)cc1 (stereo not drawn) too.
-- reply < 10 nM

====

- System: VEGF
- Measurement Description: Hypoxia-inducible endogenous VEGF expression ELISA in HeLa cells
- Format: cell-based
- Condition: purchased compounds 156-188, hypoxic conditions, VEGF protein by ELISA, hydrochloride, read-out: ELISA EC50
Where a name gives a salt, the structure may show the parent alone.
Measured Quantity: EC50 (µM)
Give just the numeric value; µM need not be written.

-- ask I'd like to know its EC50. The molecule in question is OCCNC1CCCc2c1[nH]c1ccc(Br)cc21 (stereo not shown) [Compound 186, hydrochloride]
-- reply 12.2

====

- System: VEGF
- Measurement Description: Hypoxia-inducible endogenous VEGF expression ELISA in HeLa cells
- Type: cell-based
- Condition: Homo sapiens, HeLa, compounds 191-239, hypoxic conditions, VEGF protein by ELISA, read-out: ELISA Activity EC50
Listed here are compounds together with their documented EC50.

Examples from the recorded data:
Compound | System | EC50
OC(COc1ccc(C2CCCCc3c2[nH]c2ccc(Cl)cc32)cc1)CN1CCSCC1 (centres unmarked) | VEGF | < 0.01 µM
Oc1ccc(C2CCCc3c2[nH]c2ccc(Cl)cc32)cc1 (centres unmarked) | VEGF | 0.04 to 0.2 µM
Brc1ccc2[nH]c3c(c2c1)CCCC3c1ccc(OCCCn2ccnn2)cc1 (centres unmarked) | VEGF | < 0.01 µM
OC(COc1ccc(C2CCCc3c2[nH]c2ccc(Cl)cc32)cc1)Cn1ccnc1 (centres unmarked) | VEGF | 0.01 to 0.04 µM
CC(=O)N1CCN(CC(O)COc2ccc(C3CCCc4c3[nH]c3ccc(Cl)cc43)cc2)CC1 (centres unmarked) | VEGF | 0.04 to 0.2 µM
Brc1ccc2[nH]c3c(c2c1)CCCC3c1ccc(OCCCN2CCOCC2)cc1 (centres unmarked) | VEGF | < 0.01 µM

-- ask I'd like to know its EC50. The compound in question is COCCN(C)CC(O)COc1ccc(C2CCCc3c2[nH]c2ccc(Cl)cc32)cc1 (centres unmarked)
-- reply 0.01 to 0.04 µM

-- ask Check CN1CCN(CC(O)COc2ccc(C3CCCc4c3[nH]c3ccc(Cl)cc43)cc2)CC1 (centres unmarked) too.
-- reply 0.01 to 0.04 µM

====

- System: VEGF
- Measurement Description: Hypoxia-inducible endogenous VEGF expression ELISA in HeLa cells
- Assay type: cell-based
- Condition: Homo sapiens, HeLa, compounds 191-239, hypoxic conditions, VEGF protein by ELISA, read-out: ELISA Activity EC50
Listed here are compounds together with their documented EC50.

Compound | Reported Measurement
OC(COc1ccc(C2CCCc3c2[nH]c2ccc(Br)cc32)cc1)Cn1nccn1 (stereo not shown) | < 10 nM

-- ask I'd like to know its EC50. The compound in question is CN1CCN(CC(O)COc2ccc(C3CCCc4c3[nH]c3ccc(Br)cc43)cc2)CC1 (stereo not shown)
-- reply 10 to 40 nM

-- ask Check OC(COc1ccc(C2CCCCc3c2[nH]c2ccc(Br)cc32)cc1)CN1CCOCC1 (stereo not shown) too.
-- reply 40 to 200 nM

-- ask Check OC(COc1ccc(C2CCCCc3c2[nH]c2ccc(Cl)cc32)cc1)Cn1ccnc1 (stereo not shown) too.
-- reply < 10 nM

====

Listed here are molecules together with their documented EC50.
- System: VEGF
- Measurement Description: Hypoxia-inducible endogenous VEGF expression ELISA in HeLa cells
- Assay type: cell-based
- Condition: Homo sapiens, HeLa, compounds 191-239, hypoxic conditions, VEGF protein by ELISA, read-out: ELISA Activity EC50

-- ask I'd like to know its EC50. The molecule in question is OC(COc1ccc(C2CCCc3c2[nH]c2ccc(Cl)cc32)cc1)Cn1cncn1 (stereo not drawn)
-- reply 0.04 to 0.2 µM

====

Listed here are compounds together with their documented pEC50.
- Tested on: VEGF
- Measurement Description: Hypoxia-inducible endogenous VEGF expression ELISA in HeLa cells
- Type: cell-based
- Condition: Homo sapiens, HeLa, compounds 191-239, hypoxic conditions, VEGF protein by ELISA, read-out: ELISA Activity EC50
- Description: The ability of compounds of the invention to modulate hypoxia-inducible endogenous VEGF expression is analyzed as follows. VEGF protein levels are monitored by an ELISA assay (R&D Systems). […] The conditioned media is then assayed by ELISA, and the concentration of VEGF is calculated from the standard ELISA curve of each assay. A dose-response analysis is performed using the ELISA assay and conditions described above. A series of different concentrations (e.g., seven) are analyzed. […]
pEC50: −log10 of the molar value.

Compound | Measured Quantity | Reported Measurement
OC1CCc2c([nH]c3ccc(Br)cc23)C1c1ccccc1 (stereo not drawn) [Compound 236] | pEC50 | 6.70 to 7.40
Brc1ccc2[nH]c3c(c2c1)CCCC3c1ccc(OCCCN2CCSCC2)cc1 (stereo not drawn) [Compound 206] | pEC50 | > 8.00
OCC(O)COc1ccc(C2CCCc3c2[nH]c2ccc(Br)cc32)cc1 (stereo not drawn) [Compound 212] | pEC50 | > 8.00
OC(COc1ccc(C2CCCc3c2[nH]c2ccc(Br)cc32)cc1)Cn1ccnc1 (stereo not drawn) [Compound 195] | pEC50 | > 8.00
OC(COc1ccc(C2CCCc3c2[nH]c2ccc(Br)cc32)cc1)CN1CCOCC1 (stereo not drawn) [Compound 196] | pEC50 | > 8.00

-- ask Recall the recorded pEC50 for OC(COc1ccc(C2CCCCc3c2[nH]c2ccc(Cl)cc32)cc1)Cn1ccnn1 (stereo not drawn) [Compound 232] with VEGF and state it.
-- reply 7.40 to 8.00

-- ask Check OC(COc1ccc(C2CCCc3c2[nH]c2ccc(Cl)cc32)cc1)CN1CCOCC1 (stereo not drawn) [Compound 215] too.
-- reply 7.40 to 8.00

-- ask Check OC(COc1ccc(C2CCCCc3c2[nH]c2ccc(Cl)cc32)cc1)Cn1cncn1 (stereo not drawn) [Compound 235] too.
-- reply 7.40 to 8.00

-- ask Check CN1CCN(CCCOc2ccc(C3CCCc4c3[nH]c3ccc(Br)cc43)cc2)CC1 (stereo not drawn) [Compound 208] too.
-- reply 6.70 to 7.40

# credit: patent US9271960B2
